Reference source for all entries: patent US20250326712A1

Experiment: mRNA encapsulation by Ribogreen RNA assay
Type: physicochemical
Details: LNP: ionizable lipid/DSPC/cholesterol/DMG-PEG2000 about 50/10/38.5/1.5, eGFP mRNA, mRNA/ionizable lipid 1/10
property-measured: % encap (%)

>>> assay_result("CCCCCC/C=C\\COC(=O)CCCCCCCN(CCCCCCCC(=O)OC(CCCCCCCC)CCCCCCCC)C(=O)OCCSSCCOC(=O)NCCN(C)C")
96
>>> assay_result("CCCCCCCCCOC(=O)CCCCCCCN(CCCCCCCC(=O)OC(CCCCCCCC)CCCCCCCC)C(=O)OCCSSCCOC(=O)NCCN1CCCCCC1")
98
>>> assay_result("CCCCCCCCC(CC)OC(=O)CCCCCCCN(CCCCCCCC(=O)OC(CCCCCCCC)CCCCCCCC)C(=O)OCCSSCCOC(=O)NCCN(C)C (stereo not drawn)")
96
